Tested on: Italian ryegrass
Experiment: Test E Italian ryegrass
Assay type: in vivo, Lolium multiflorum
Settings: Preemergence, Rate 250 g/ha; 0 to 100 scale
Catalogue of Plant response rating, I. Ryegrass readings, one per entry.
Enter the number alone.

Worked set:
CC1CC1n1c(=O)on(C(=O)N(c2ccc(F)cc2)C(C)C)c1=O (stereo not shown)    70
CC(C)N(C(=O)n1oc(=O)n(C2CC3CCC2C3)c1=O)c1ccccc1 (stereo not shown)    65
CCN(C(=O)n1oc(=O)n(C(C)C)c1=O)C1CCCCC1    50

We now examine a further molecule.
Test item CC1CC1n1c(=O)on(C(=O)N(c2ccccc2)C(C)C)c1=O (stereo not shown) ; Italian ryegrass; reported Plant response rating, I. Ryegrass was 85

* * *

System: soybean
Test: Test B pre/postemergence soybean
Format: in vivo, Glycine max
Details: Preemergence, Rate 62 g/ha; scale 0 to 10 (0 no effect, 10 complete control)
endpoint: Soybean plant response rating
The reply should be a number, written without any unit.

Worked set:
Cc1ccccc1Cn1c(=O)on(C(=O)N(C)c2ccccc2)c1=O    0
Cc1noc(C)c1-n1c(=O)on(C(=O)N(c2ccc(F)cc2F)C(C)C)c1=O    0
CN(C(=O)n1oc(=O)n(Cc2cccs2)c1=O)c1ccccc1    0
COc1cccc(C)c1-n1c(=O)on(C(=O)N(c2ccc(F)cc2)C(C)C)c1=O    0
COCCOCn1c(=O)on(C(=O)N(c2ccc(Cl)cc2)C(C)C)c1=O    0
COC(C)n1c(=O)on(C(=O)N(c2ccc(F)cc2F)C(C)C)c1=O (stereo not shown)    0

Now turn to the next compound.
Tested on soybean: CC(C)N(C(=O)n1oc(=O)n(CCc2ccccc2)c1=O)c1ccccc1 . Observed Soybean plant response rating: 0

* * *

Tested on: corn
Experiment: Test B pre/postemergence corn
Assay type: in vivo, Zea mays
Settings: Postemergence, Rate 250 g/ha; scale of 0 to 10, 0 is no effect, 10 is complete control
endpoint: Corn plant response rating
The answer should be a number; do not append a unit.

COC(C)n1c(=O)on(C(=O)N(c2ccc(F)cc2F)C(C)C)c1=O (centres unmarked)    0

# compound CC(C)N(C(=O)n1oc(=O)n(CCC(=O)N(C)C)c1=O)c1ccc(F)cc1 ; its Corn plant response rating = 2

Recorded Corn plant response rating (compound CC(C)N(C(=O)n1oc(=O)n(CC(=O)C2CCC2)c1=O)c1ccc(F)cc1F ): 0

For record CC(C)N(C(=O)n1oc(=O)n(Cc2nnc(Cl)s2)c1=O)c1ccccc1 the listed Corn plant response rating is 0

Quick note, Corn plant response rating for COP(=O)(CCn1c(=O)on(C(=O)N(c2ccc(F)cc2)C(C)C)c1=O)OC landed at 0

* * *

Test system: giant foxtail
Experiment: Test B pre/postemergence giant foxtail
Assay type: in vivo, Setaria faberii
Settings: Preemergence, Rate 62 g/ha; scale 0 to 10 (0 no effect, 10 complete control)
Quick reference: Giant foxtail plant response rating of the listed items.

Please review the following examples before continuing.
C=CCn1c(=O)on(C(=O)N(c2ccc(F)cc2F)C2CC2)c1=O    0
CCCCCn1c(=O)on(C(=O)N(c2ccccc2)C(C)C)c1=O    9
CC(C)N(C(=O)n1oc(=O)n(C[Si](C)(C)C)c1=O)c1ccc(Cl)cc1    9
CC(C)N(C(=O)n1oc(=O)n(CC2CCC2)c1=O)c1ccc(Cl)cc1    7

Lab note: compound COCCOCn1c(=O)on(C(=O)N(c2ccc(Cl)cc2)C(C)C)c1=O tested on giant foxtail; recorded Giant foxtail plant response rating was 10

Response field Giant foxtail plant response rating (giant foxtail) for item CC(C)N(C(=O)n1oc(=O)n(Cc2ccccc2Cl)c1=O)C1=CCCCC1 : 0

* * *

Tested on: morningglory
Assay: Test B pre/postemergence morningglory
Format: in vivo, Ipomoea hederacea
Conditions: Rate 250 g/ha; Postemergence
Let's look at some molecules and their measured Plant response rating (0 to 10; 0 is no effect, 10 is complete control), Morningglory.
Lab note: jot down the number only; don't add units.

Example entries begin here.
Cc1ccccc1-n1c(=O)on(C(=O)N(c2ccc(F)cc2Cl)C(C)C)c1=O [Compound 186]    2
Cc1nc(C)c(Cn2c(=O)on(C(=O)N(c3ccc(F)cc3F)C(C)C)c2=O)s1 [Compound 233]    3

Record [2H]C([2H])([2H])n1c(=O)on(C(=O)N(c2ccc(F)cc2)C(C)C)c1=O [Compound 245] , field Plant response rating (0 to 10; 0 is no effect, 10 is complete control), Morningglory: 9

Recorded Plant response rating (0 to 10; 0 is no effect, 10 is complete control), Morningglory (molecule CC(C)N(C(=O)n1oc(=O)n(COCc2ccccc2)c1=O)c1ccc(F)cc1 [Compound 261] ): 6

* * *

Reported Redroot pigweed plant response rating values follow for various compounds
System: pigweed
Experiment: Test B pre/postemergence pigweed
Assay type: in vivo, Amaranthus retroflexus
Details: Preemergence, Rate 500 g/ha; scale of 0 to 10 where 0 is no effect and 10 is complete control
# output: bare number, no unit

CC(C)N(C(=O)n1oc(=O)n(C2CC3CCC2C3)c1=O)c1ccc(F)cc1 (centres unmarked) [Compound 327]    3
COCC(C)n1c(=O)on(C(=O)N(c2ccc(F)cc2F)C(C)C)c1=O (centres unmarked) [Compound 357]    10
CC1CC1n1c(=O)on(C(=O)N(c2ccc(F)cc2F)C(C)C)c1=O (centres unmarked) [Compound 372]    10
COCCOCn1c(=O)on(C(=O)N(c2ccc(Cl)cc2)C(C)C)c1=O [Compound 535]    4

Could you now look at the following compound, please?
Record CC(=O)OCCCCn1c(=O)on(C(=O)N(c2ccc(Cl)cc2)C(C)C)c1=O [Compound 536] . Reported Redroot pigweed plant response rating: 0

* * *

This listing pairs compounds with measured B. signalgrass plant response rating.
Tested on: surinam grass
Experiment: Test B pre/postemergence surinam grass
Format: in vivo, Brachiaria decumbens
Settings: Preemergence, Rate 500 g/ha; scale 0 to 10, 0 is no effect, 10 is complete control
The reply should be a number, written without any unit.

Use these answered entries as a reference point.
CCOP(=O)(Cn1c(=O)on(C(=O)N(c2ccccc2)C(C)C)c1=O)OCC [Compound 447]    0
CCc1nc(C)c(C(C)n2c(=O)on(C(=O)N(c3ccc(F)cc3)C(C)C)c2=O)s1 (stereo not drawn) [Compound 449]    0
CC(C)N(C(=O)n1oc(=O)n(CO)c1=O)c1ccc(Cl)cc1 [Compound 457]    0
CC(C)N(C(=O)n1oc(=O)n(CC2CC2)c1=O)c1ccc(F)cc1F [Compound 509]    9

The compound listed as CC(C)N(C(=O)n1oc(=O)n(C(C)C#N)c1=O)c1ccccc1 (stereo not drawn) [Compound 435] shows B. signalgrass plant response rating equal to 1

Short answer for CC(C)N(C(=O)n1oc(=O)n(CCCNC(=O)CCl)c1=O)c1ccccc1 [Compound 493] : B. signalgrass plant response rating was 0

* * *

System: sugar beet
Experiment: Test B pre/postemergence sugar beet
Type: in vivo, Beta vulgaris
Details: Rate 125 g/ha; Postemergence; scale 0 to 10, 0 no effect, 10 complete control
// values below are reported Sugarbeets plant response rating

Quick note, Sugarbeets plant response rating for COc1ccc(-n2c(=O)on(C(=O)N(c3ccc(F)cc3)C(C)C)c2=O)c(OC)c1 landed at 2

* * *

Test system: rape
Assay: Test B pre/postemergence rape
Type: in vivo, Brassica napus
Settings: Rate 250 g/ha, Postemergence; scale of 0 to 10 where 0 is no effect and 10 is complete control
endpoint: Plant response rating, Rape

Solved cases (7 shown):
CC(C)N(C(=O)n1oc(=O)n(C[Si](C)(C)C)c1=O)c1ccc(F)cc1F    7
CC(C)N(C(=O)n1oc(=O)n(CCC2OCCCO2)c1=O)c1ccc(Cl)cc1    2
CCCCCn1c(=O)on(C(=O)N(c2ccccc2)C(C)C)c1=O    0
CC(C)N(C(=O)n1oc(=O)n(C2CC3CCC2C3)c1=O)c1ccccc1 (centres unmarked)    0
C=CCCCn1c(=O)on(C(=O)N(c2ccccc2)C(C)C)c1=O    3
CC(C)N(C(=O)n1oc(=O)n(C[Si](C)(C)C)c1=O)c1ccc(Cl)cc1    7
COCCOCn1c(=O)on(C(=O)N(c2ccc(Cl)cc2)C(C)C)c1=O    0

Kindly note the recorded Plant response rating, Rape for CC(=O)OCCCCn1c(=O)on(C(=O)N(c2ccc(Cl)cc2)C(C)C)c1=O , which is 0

* * *

Tested on: wheat
Assay: Test B pre/postemergence wheat
Assay type: in vivo, Triticum aestivum
Settings: Postemergence, Rate 250 g/ha; scale 0 to 10, 0 no effect, 10 complete control
Known Wheat plant response rating of a selection of compounds
// keep it numeric: no unit symbol after the value

COc1cccc(C)c1-n1c(=O)on(C(=O)N(c2ccc(F)cc2)C(C)C)c1=O [Compound 62]    0
CN(C(=O)n1oc(=O)n(Cc2cccs2)c1=O)c1ccccc1 [Compound 83]    0
COc1ccc(-n2c(=O)on(C(=O)N(c3ccc(F)cc3)C(C)C)c2=O)cc1 [Compound 5]    1

Cc1ccc(-n2c(=O)on(C(=O)N(c3ccc(F)cc3F)C(C)C)c2=O)c(C)c1 [Compound 24] tested on wheat gave Wheat plant response rating: 0
